experimentDescription: physchem
conditionDetails: octanol/buffer
parameterMeasured: logP
Give bare numbers.

Example cases with answers are listed next.
- chemicalStructure: "CCNCc1ccc(Cl)c(CN(C(=O)[C@H]2CNCC(=O)N2c2ccc(OCCCOCc3ccccc3OC)cc2)C2CC2)c1"
  parameterMeasured: "logP"
  valueMeasured: 5.22
- chemicalStructure: "COCCCc1cc(CN(C(=O)[C@H]2CNCC(=O)N2c2ccc(COC(=O)c3ccccc3)cc2)C2CC2)c(Cl)cn1"
  parameterMeasured: "logP"
  valueMeasured: 4.11
- chemicalStructure: "O=C([C@H]1CNCC(=O)N1c1ccc(CCCOc2cccc(Cl)c2)cc1)N(Cc1ccc(Cl)cc1)C1CC1"
  parameterMeasured: "logP"
  valueMeasured: 5.91
- chemicalStructure: "CNC(=O)Cc1ccc(Cl)c(CN(C(=O)[C@H]2CNCC(=O)N2c2cnc(OCCCOCc3ccccc3OC)nc2)C2CC2)c1"
  parameterMeasured: "logP"
  valueMeasured: 2.47
- chemicalStructure: "O=C([C@H]1CNCC(=O)N1c1ccc(CCCOc2c(F)ccc(F)c2F)cc1)N(Cc1cccc(Cl)c1)C1CC1"
  parameterMeasured: "logP"
  valueMeasured: 5.77
- chemicalStructure: "COCCCc1ccc(Cl)c(CN(C(=O)[C@H]2CNCC(=O)N2c2cnc(OCCCOCc3ccccc3OC)nc2)C2CC2)c1"
  parameterMeasured: "logP"
  valueMeasured: 3.7
- chemicalStructure: "Cc1cc(Cl)c(OCCOc2ccc(N3C(=O)CNC[C@@H]3C(=O)N(Cc3cc(CNCCF)ccc3Cl)C3CC3)cc2)c(Cl)c1"
  parameterMeasured: "logP"
  valueMeasured: 5.77
- chemicalStructure: "O=C([C@H]1CNCC(=O)N1c1ccc(OCCCOCc2ccccc2)cc1)N(Cc1cc(CNCC(F)F)ccc1Cl)C1CC1"
  parameterMeasured: "logP"
  valueMeasured: 5.34
- chemicalStructure: "COCCCc1cc(CN(C(=O)[C@H]2CNCC(=O)N2c2cnc(OCCCOCc3ccccc3OC)nc2)C2CC2)c(Cl)c[n+]1[O-]"
  parameterMeasured: "logP"
  valueMeasured: 2.65
- chemicalStructure: "O=C([C@H]1CNCC(=O)N1c1ccc(CCCOc2c(F)ccc(F)c2F)cc1)N(Cc1cc(CCNC2CC2)ccc1Cl)C1CC1"
  parameterMeasured: "logP"
  valueMeasured: 6.29

List logP for every entry below, keeping the order given.
1. Cc1cccc(CN(C(=O)[C@H]2CNCC(=O)N2c2ccc(CCCOc3c(F)ccc(F)c3F)cc2)C2CC2)c1C
2. Cc1cccc(CN(C(=O)[C@H]2CNCC(=O)N2c2ccc(OCCOc3c(Cl)cc(F)cc3Cl)cc2)C2CC2)c1C
3. CNC(=O)CCc1ccc(Cl)c(CN(C(=O)[C@H]2CNCC(=O)N2c2ccc(OCCOc3c(Cl)cc(C)cc3Cl)cc2)C2CC2)c1
4. O=C(CC(F)(F)F)NCc1ccc(Cl)c(CN(C(=O)[C@H]2CNCC(=O)N2c2ccc(CCCOc3c(F)ccc(F)c3F)cc2)C2CC2)c1
5. Cc1cc(Cl)c(OCCOc2ccc(N3C(=O)CNC[C@@H]3C(=O)N(Cc3cc(CCNC(=O)CC(F)(F)F)ccc3Cl)C3CC3)cc2)c(Cl)c1
6. CNCCc1ccc(Cl)c(CN(C(=O)[C@H]2CNCC(=O)N2c2cnc(OCCCOCc3ccccc3OC)nc2)C2CC2)c1
7. O=C([C@H]1CNCC(=O)N1c1ccc(CCCOc2c(F)ccc(F)c2F)cc1)N(Cc1cc(CCNCC(F)F)ccc1Cl)C1CC1

1. 5.73
2. 5.69
3. 5.34
4. 5.91
5. 6.11
6. 2.95
7. 6.05

Which logP value belongs to CNCCc1ccc(Cl)c(CN(C(=O)[C@H]2CNCC(=O)N2c2ccc(CCCOc3cccc(Cl)c3)cc2)C2CC2)c1 ?
5.81
